Data origin, for the record: paper PMC9305971

# Assay procedure: Ex vivo biodistribution of [18F]14 and [18F]15
# Assay type: in vivo, Rj:NMRI-Foxn1^nu/nu mice
# Reported conditions: mouse, iv, 0.2 nmol, 60 min post injection, i.v., blocked with octreotide; read-out: spleen
A collection of molecules and their measured tissue uptake at 1 h
Report only the number, with the unit %ID/g understood.

INSERT INTO assay_data (molecule, measured_value) VALUES
  ('C[C@@H](O)[C@@H]1NC(=O)[C@H](CCCCN)NC(=O)[C@@H](Cc2c[nH]c3ccccc23)NC(=O)[C@H](Cc2ccc(O)cc2)NC(=O)[C@@H](NC(=O)[C@@H](Cc2ccccc2)NC(=O)CCOCCOCCOCCOCCON=Cc2ccc(C(=O)NCCOCCOCCOCCNC(=O)OC3CCCc4cnnc(-c5ccc(CC(=O)NCC[N+](C)(C)C[B-](F)(F)F)cc5)c4CC3)cc2)CSSC[C@@H](C(=O)N[C@H](CO)[C@@H](C)O)NC1=O (some centres unmarked) [[^18F]15]', 0.9);

Shift focus to the following entry.
Looking up C[C@@H](O)[C@@H]1NC(=O)[C@H](CCCCN)NC(=O)[C@@H](Cc2c[nH]c3ccccc23)NC(=O)[C@H](Cc2ccc(O)cc2)NC(=O)[C@@H](NC(=O)[C@@H](Cc2ccccc2)NC(=O)CCOCCOCCOCCOCCON=Cc2ccc(CNC(=O)OC3CCCc4cnnc(-c5ccc(CC(=O)NCC[N+](C)(C)C[B-](F)(F)F)cc5)c4CC3)cc2)CSSC[C@@H](C(=O)N[C@H](CO)[C@@H](C)O)NC1=O (some centres unmarked) [[^18F]14] , I found its tissue uptake at 1 h recorded as 0.9

---

# Assay procedure: Distribution of radioactivity in blood components after i.v. administration
# Assay type: in vivo, mice
# Reported conditions: mouse, whole blood, intravenous, 60 min post injection, blocked with octreotide; read-out: free fraction
Measurement name: fraction unbound at 60 min
Give the figure only, with no unit attached.

Looking up C[C@@H](O)[C@@H]1NC(=O)[C@H](CCCCN)NC(=O)[C@@H](Cc2c[nH]c3ccccc23)NC(=O)[C@H](Cc2ccc(O)cc2)NC(=O)[C@@H](NC(=O)[C@@H](Cc2ccccc2)NC(=O)CCOCCOCCOCCOCCON=Cc2ccc(CNC(=O)OC3CCCc4cnnc(-c5ccc(CC(=O)NCC[N+](C)(C)C[B-](F)(F)F)cc5)c4CC3)cc2)CSSC[C@@H](C(=O)N[C@H](CO)[C@@H](C)O)NC1=O (stereo partly shown) [[^18F]14] , I found its fraction unbound at 60 min recorded as 0.557

---

# Assay procedure: PET/CT imaging of [18F]15
# Type: in vivo, Rj:NMRI-Foxn1^nu/nu mice
# Reported conditions: Rj:NMRI-Foxn1^nu/nu, mouse, subcutaneous AR42J tumor, iv, 0.2 nmol, total radioactivity, 90 min post injection, n = 2; read-out: tumor SUV, baseline
Measurement name: SUV at 1.5 h (SUV)
Report only the number, with the unit SUV understood.

Looking up C[C@@H](O)[C@@H]1NC(=O)[C@H](CCCCN)NC(=O)[C@@H](Cc2c[nH]c3ccccc23)NC(=O)[C@H](Cc2ccc(O)cc2)NC(=O)[C@@H](NC(=O)[C@@H](Cc2ccccc2)NC(=O)CCOCCOCCOCCOCCON=Cc2ccc(C(=O)NCCOCCOCCOCCNC(=O)OC3CCCc4cnnc(-c5ccc(CC(=O)NCC[N+](C)(C)C[B-](F)(F)F)cc5)c4CC3)cc2)CSSC[C@@H](C(=O)N[C@H](CO)[C@@H](C)O)NC1=O (stereo partly shown) [[^18F]15] , I found its SUV at 1.5 h recorded as 0.82

---

# Assay procedure: Ex vivo biodistribution of [18F]14 and [18F]15
# Format: in vivo, Rj:NMRI-Foxn1^nu/nu mice
# Reported conditions: mouse, tibia bone, iv, 0.2 nmol, 120 min post injection, i.v.; read-out: bone, tibia
Measurement name: tissue uptake at 2 h (%ID/g)
Report only the number, with the unit %ID/g understood.

INSERT INTO assay_data (compound, measurement_name, unit_of_measurement, measured_value) VALUES
  ('C[C@@H](O)[C@@H]1NC(=O)[C@H](CCCCN)NC(=O)[C@@H](Cc2c[nH]c3ccccc23)NC(=O)[C@H](Cc2ccc(O)cc2)NC(=O)[C@@H](NC(=O)[C@@H](Cc2ccccc2)NC(=O)CCOCCOCCOCCOCCON=Cc2ccc(C(=O)NCCOCCOCCOCCNC(=O)OC3CCCc4cnnc(-c5ccc(CC(=O)NCC[N+](C)(C)C[B-](F)(F)F)cc5)c4CC3)cc2)CSSC[C@@H](C(=O)N[C@H](CO)[C@@H](C)O)NC1=O (some centres unmarked) [[^18F]15]', 'tissue uptake at 2 h', '%ID/g', 0.6);

Shift focus to the following entry.
Looking up C[C@@H](O)[C@@H]1NC(=O)[C@H](CCCCN)NC(=O)[C@@H](Cc2c[nH]c3ccccc23)NC(=O)[C@H](Cc2ccc(O)cc2)NC(=O)[C@@H](NC(=O)[C@@H](Cc2ccccc2)NC(=O)CCOCCOCCOCCOCCON=Cc2ccc(CNC(=O)OC3CCCc4cnnc(-c5ccc(CC(=O)NCC[N+](C)(C)C[B-](F)(F)F)cc5)c4CC3)cc2)CSSC[C@@H](C(=O)N[C@H](CO)[C@@H](C)O)NC1=O (some centres unmarked) [[^18F]14] , I found its tissue uptake at 2 h recorded as 2.9

---

# Assay procedure: Ex vivo biodistribution of [18F]14 and [18F]15
# Assay type: in vivo, Rj:NMRI-Foxn1^nu/nu mice
# Reported conditions: mouse, iv, 0.2 nmol, 60 min post injection, i.v., blocked with octreotide; read-out: blood
Measurement name: tissue uptake at 1 h (%ID/g)
Report only the number, with the unit %ID/g understood.

INSERT INTO measurements (compound, measurement_name, unit_of_measurement, measured_value) VALUES
  ('C[C@@H](O)[C@@H]1NC(=O)[C@H](CCCCN)NC(=O)[C@@H](Cc2c[nH]c3ccccc23)NC(=O)[C@H](Cc2ccc(O)cc2)NC(=O)[C@@H](NC(=O)[C@@H](Cc2ccccc2)NC(=O)CCOCCOCCOCCOCCON=Cc2ccc(C(=O)NCCOCCOCCOCCNC(=O)OC3CCCc4cnnc(-c5ccc(CC(=O)NCC[N+](C)(C)C[B-](F)(F)F)cc5)c4CC3)cc2)CSSC[C@@H](C(=O)N[C@H](CO)[C@@H](C)O)NC1=O (some centres unmarked) [[^18F]15]', 'tissue uptake at 1 h', '%ID/g', 7.2);

Shift focus to the following entry.
Looking up C[C@@H](O)[C@@H]1NC(=O)[C@H](CCCCN)NC(=O)[C@@H](Cc2c[nH]c3ccccc23)NC(=O)[C@H](Cc2ccc(O)cc2)NC(=O)[C@@H](NC(=O)[C@@H](Cc2ccccc2)NC(=O)CCOCCOCCOCCOCCON=Cc2ccc(CNC(=O)OC3CCCc4cnnc(-c5ccc(CC(=O)NCC[N+](C)(C)C[B-](F)(F)F)cc5)c4CC3)cc2)CSSC[C@@H](C(=O)N[C@H](CO)[C@@H](C)O)NC1=O (some centres unmarked) [[^18F]14] , I found its tissue uptake at 1 h recorded as 7.4

---

# Assay procedure: Ex vivo biodistribution of [18F]14 and [18F]15
# Type: in vivo, Rj:NMRI-Foxn1^nu/nu mice
# Reported conditions: mouse, iv, 0.2 nmol, 60 min post injection, i.v., baseline; read-out: pancreas
Measurement name: tissue uptake at 1 h (%ID/g)
Report only the number, with the unit %ID/g understood.

INSERT INTO measurements (molecule, measurement_name, unit_of_measurement, measured_value) VALUES
  ('C[C@@H](O)[C@@H]1NC(=O)[C@H](CCCCN)NC(=O)[C@@H](Cc2c[nH]c3ccccc23)NC(=O)[C@H](Cc2ccc(O)cc2)NC(=O)[C@@H](NC(=O)[C@@H](Cc2ccccc2)NC(=O)CCOCCOCCOCCOCCON=Cc2ccc(CNC(=O)OC3CCCc4cnnc(-c5ccc(CC(=O)NCC[N+](C)(C)C[B-](F)(F)F)cc5)c4CC3)cc2)CSSC[C@@H](C(=O)N[C@H](CO)[C@@H](C)O)NC1=O (some centres unmarked) [[^18F]14]', 'tissue uptake at 1 h', '%ID/g', 1.1);

Shift focus to the following entry.
Looking up C[C@@H](O)[C@@H]1NC(=O)[C@H](CCCCN)NC(=O)[C@@H](Cc2c[nH]c3ccccc23)NC(=O)[C@H](Cc2ccc(O)cc2)NC(=O)[C@@H](NC(=O)[C@@H](Cc2ccccc2)NC(=O)CCOCCOCCOCCOCCON=Cc2ccc(C(=O)NCCOCCOCCOCCNC(=O)OC3CCCc4cnnc(-c5ccc(CC(=O)NCC[N+](C)(C)C[B-](F)(F)F)cc5)c4CC3)cc2)CSSC[C@@H](C(=O)N[C@H](CO)[C@@H](C)O)NC1=O (some centres unmarked) [[^18F]15] , I found its tissue uptake at 1 h recorded as 1.6
